Below: a set of entries, each annotated with reported GI50.
- Tested on: DU-145 prostate
- PROTOCOL: NCI tumour cell line growth inhibition, 48 h

As a guide, the following entries are already answered.
CCCCCCCCCCCC[n+]1ccccc1 (tested in a mixture with another compound) ... 1.5 µM
CCSc1nc(N)c2cn[nH]c2n1 ... 46.2 µM
O=C(/C=C/c1ccccc1)CC(c1ccccc1)N1CCOCC1 (configuration not stated) ... 3.49 µM
O=C(O)CCC(NC(=S)S)C(=O)O.[Na+].[Zn+2] (configuration not stated) ... > 50 µM
C[C@H](Cn1ncnn1)Nc1ncc2cc(Oc3ccc(F)cc3F)c(=O)n(C)c2n1 ... > 25 µM
O=C1C(Cl)=C(Nc2ccccc2)C(=O)c2ccccc21 ... 9.34 µM
CC1(C)N=C(N)N=C(N)N1c1ccc(OCC(=O)Nc2ccccc2)c(Cl)c1 ... 1.15 µM
OB1OCc2cc(/C=C/c3cccc(C(F)(F)F)c3)ccc21 ... 0.554 µM

Prompt: Please report the measured GI50 for "C[C@H]1[C@H](C)CC[C@]2(C(=O)NCCNCCN)CC[C@]3(C)C(=CC[C@@H]4[C@@]5(C)CCC(=O)C(C)(C)[C@@H]5CC[C@]43C)[C@H]12"
Completion: 1.8 µM

Prompt: Please report the measured GI50 for "O=S1(=O)NCCCN1CCNc1nccc(-c2c(-c3cccc(O)c3)nc3sccn23)n1"
Completion: 15.9 µM

Prompt: Please report the measured GI50 for "COc1ccc(/C=C2/CCc3cc4ccc(OC)cc4[o+]c32)c(O)c1"
Completion: 8.15 µM

Prompt: Please report the measured GI50 for "CCCCCCCCCCN=C(c1ccc(N(C)C)cc1)c1ccc(N(C)C)cc1"
Completion: 2.42 µM

----------
Below: a set of entries, each annotated with reported TGI.
- Test system: RPMI-8226 leukemia
- PROTOCOL: NCI tumour cell line growth inhibition, 48 h
Just the number please, in µM, no unit attached.

As a guide, the following entries are already answered.
CN(C)Cc1c[nH]c2c(NCCN)c3c(c(NCCN)c12)C(=O)c1ccccc1C3=O ... 6.52
COc1ccc2cc3c4cc5c(cc4cc[n+]3cc2c1OC)OCO5 ... 35.1

Prompt: Please report the measured TGI for "COc1c(Br)cc(Br)c(OC)c1-c1[nH]c(Br)c(Br)c1Br"
Completion: 13.2

Prompt: Please report the measured TGI for "Cc1ccccc1Nc1nc2c(s1)C(=O)c1ccccc1C2=O"
Completion: 18

Prompt: Please report the measured TGI for "COc1ccc(-c2nnc(N3CCN(C(=O)CN4CCN(c5ccc(OC)cc5)CC4)CC3)nc2-c2ccc(OC)cc2)cc1"
Completion: 6.5

Prompt: Please report the measured TGI for "CCCCCCCCCCN=C(c1ccc(N(C)C)cc1)c1ccc(N(C)C)cc1"
Completion: 16.3

----------
- Test system: MDA-MB-231 breast
- PROTOCOL: NCI tumour cell line growth inhibition, 48 h
EXPERIMENTAL READOUT: TGI

Prompt: Please report the measured TGI for COc1ccc(C2(CC(C)O)SCCCS2)cc1 (configuration not stated)
Completion: > 100 µM

Prompt: Please report the measured TGI for CCCCCCCCCCCC[n+]1ccccc1 (tested in a mixture with another compound)
Completion: 3.37 µM

Prompt: Please report the measured TGI for "COc1cc([N+](=O)[O-])c(OC)cc1-c1nc2sc(Cl)cn2c1/C=N/Nc1ccccn1"
Completion: 30.7 µM

Prompt: Please report the measured TGI for "O=C(c1cc2ccccc2cc1O)N1CCCCC1"
Completion: > 100 µM

Prompt: Please report the measured TGI for "CC(C)c1ccc(C(=O)Nc2sc3c(CN(C)C)c(O)ccc3c2C(N)=O)cc1"
Completion: > 100 µM

Prompt: Please report the measured TGI for CC(O)C1CC1(CO)CNc1cc(Cl)nc(N)n1 (configuration not stated)
Completion: > 100 µM

Prompt: Please report the measured TGI for "COc1ccc(C#CC(=O)O)c(OC)c1"
Completion: > 100 µM
